Where these numbers come from: patent US20240209076A1

# Target Desc: T1, recombinant human IL-6 (human, UniProt P05231 30-212)
# T1 construct: Flowed in solution over the captured antibodies
# T1 sequence (P05231 30-212 limits assumed): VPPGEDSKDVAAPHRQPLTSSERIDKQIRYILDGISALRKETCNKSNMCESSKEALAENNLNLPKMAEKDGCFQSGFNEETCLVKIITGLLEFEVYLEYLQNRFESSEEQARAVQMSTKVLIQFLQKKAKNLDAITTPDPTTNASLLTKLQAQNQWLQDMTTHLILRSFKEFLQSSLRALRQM
# Test Description: SPR (Biacore), supernatant IgG on Protein A, 25 C
Measure: pKd
Just the number, please; pKd means minus log10 of the concentration in mol/L.

Binder: anti-IL-6 antibody, heavy chain T28E, light chain WT (antibody, IgG1, V domains shown, Full IgG1 tested; V domains derived as in m2) VH: EVQLVESGGGLVQPGGSLRLSCAASGFEFSPFAMSWVRQAPGKGLEWVAKISPGGSWTYYSDTVTGRFTFSLDTSKSTAYLQMNSLRAEDTAVYYCARQLWGYYALDIWGQGTLVTVSS VL: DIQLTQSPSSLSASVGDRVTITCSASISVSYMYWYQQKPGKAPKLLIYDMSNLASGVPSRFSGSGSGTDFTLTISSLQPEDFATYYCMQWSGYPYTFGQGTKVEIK
Measure: pKd
Numeric Value: 9.46

We now examine a further binder.
Asked: Provide one value: measured pKd of anti-IL-6 antibody, heavy chain WT, light chain S26K (antibody, IgG1, V domains shown, Full IgG1 tested; V domains derived as in m2) VH: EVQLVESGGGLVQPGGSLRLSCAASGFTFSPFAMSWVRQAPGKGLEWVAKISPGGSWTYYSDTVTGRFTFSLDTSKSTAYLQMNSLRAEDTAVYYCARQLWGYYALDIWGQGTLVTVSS VL: DIQLTQSPSSLSASVGDRVTITCSAKISVSYMYWYQQKPGKAPKLLIYDMSNLASGVPSRFSGSGSGTDFTLTISSLQPEDFATYYCMQWSGYPYTFGQGTKVEIK
Given back: 9.36
